The measured values listed here are drawn from patent US20250171542A1.

# tested.system: T1, cynomolgus PD-L1-His (Sino Biological, Cat. 90251-C08H) (cynomolgus, UniProt Q9NZQ7 19-238 (human entry))
# T1 construct: Bought protein; also called Cyno PD-L1; Cynomolgus PD-L1 ECD-His; not shown: His tag
# T1 sequence (Q9NZQ7 other isoform, or with tags, fused parts or gaps C08H C08H limits assumed): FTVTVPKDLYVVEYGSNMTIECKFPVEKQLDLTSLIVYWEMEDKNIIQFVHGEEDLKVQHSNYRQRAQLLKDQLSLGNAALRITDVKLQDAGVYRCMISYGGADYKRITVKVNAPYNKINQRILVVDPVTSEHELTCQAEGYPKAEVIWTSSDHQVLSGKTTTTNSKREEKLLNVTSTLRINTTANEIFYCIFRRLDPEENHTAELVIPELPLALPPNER
# protocol.text: BLI (Gator), cynomolgus PD-L1
Would you kindly list pKd for each of these binders?
Answers are plain numbers, as −log10 of the molar value.

Examples from the recorded data:
55H3/76D6 (antibody, human IgG1, V domains shown) VH: QEQLEESGGGLVQPEGSLTLTCTVSGFSFSGDYYMSWVRQAPGKGLEWVASIYTGSLNSYYATWAKGRFTISLTSSTTVTLQMTSLTAADTATYFCARRNKNADYGHFDLWGPGTLVTVSS VL: YDMTQTPASVEVAVGGTVTIKCQASESINDRLAWYQQKPGQPPKLLIYAASTLASGVPSRFRGSGSGTDFTLTISDLECADAATYYCQQGWTVSSLDNAFGGGTEVVAM    10.52
74F4 (antibody, human IgG1, V domains shown) VH: QEQLEESGGGLVQPEGSLTLTCTASGFSFSGDYYMSWVRQAPGKGLEWIASIYTGSLNTYYATWAKGRFTISLTSSTTVTLQMTSLTAADTATYFCARRNKNADYGHFDLWGPGTLVTVSS VL: YDMTQTPASVEVAVGGTVTIKCQASQSINDRLAWYQQSPGQPPKLLIYGASTLASGVPSRFKGSGSGTDFTLTISDLECADAATYYCQQGWTVSSLDNAFGGGTEVVAK    11.00

Lab note: measured pKd of 56H3 (antibody, human IgG1, V domains shown) VH: QEQLVESGGGLVQPEGSLTLTCTASEFSFSNNYYMSWVRQAPGKGLEWLGSIGIGSGITDYASWAKGRFTISKASSTTVTLQMTTLTAADTAIYFCARWTSGGGGFGLWGPGTLVTVSS VL: QVLTQTSSPVSAAVGGTVTINCQSSQTIYSDYLFWYQQKPGQPPKLLIYQTSTLASGVPSRFSGSGSGTQFTLTISGVQCDDAATYYCQGYYSGYIWTFGGGTEVVVN was 9.60
